# Set-up: species or system humans
# Experimental Context: human, in vivo, po, 480 min
Counter-ions that a name gives are not always drawn.
Measurement Name: Percent urinary recovery (Hour 0 to Hour 8)

[
  {
    "Molecule": "Cc1nnc(SCC2=C(C(=O)OCc3oc(=O)oc3C)N3C(=O)C(NC(=O)[C@H](OC(=O)[C@H](C)N)c4ccccc4)C3SC2)s1 (stereo partly drawn) [Example 9, hydrochloride]",
    "Assay Result": "41.0%"
  },
  {
    "Molecule": "Cc1nnc(SCC2=C(C(=O)OCOC(=O)C(C)(C)C)N3C(=O)C(NC(=O)[C@H](OC(=O)[C@@H]4CCCN4)c4ccccc4)C3SC2)s1 (stereo partly drawn) [Example 7, hydrochloride]",
    "Assay Result": "41.0%"
  },
  {
    "Molecule": "CC(=O)OC(C)OC(=O)C1=C(CSc2nnc(C)s2)CSC2C(NC(=O)[C@H](OC(=O)[C@H](C)N)c3ccccc3)C(=O)N12 (stereo partly drawn) [Example 2, hydrochloride]",
    "Assay Result": "35.2%"
  }
]
